Biological target: T1, human TREM2 (human, UniProt Q9NZC2 19-174, limits assumed)
T1 sequence: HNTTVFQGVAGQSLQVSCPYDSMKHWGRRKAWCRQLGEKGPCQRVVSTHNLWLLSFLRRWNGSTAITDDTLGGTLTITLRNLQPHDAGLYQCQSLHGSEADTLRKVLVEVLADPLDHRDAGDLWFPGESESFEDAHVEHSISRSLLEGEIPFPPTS
Assay: yeast-displayed Fab FACS, 2nd screen 100 nM
reported.endpoint: binding signal fold over 6E7 parental (fold)
Give the number; fold is assumed, so skip it.

# binder, test.value
measured = [
    ("V44 (Fab, V domains shown) VH: EVQLVQSGAEVKKPGESLKISCKGSGYSFTSYWIAWVRQMPGKGLEWMGIIYPSDSDTRYSPSFQGQVTISADKSISTAYLQWSSLKASDTAMYFCARQRTFYYDSSDYFDYWGQGTLVTVSS VL: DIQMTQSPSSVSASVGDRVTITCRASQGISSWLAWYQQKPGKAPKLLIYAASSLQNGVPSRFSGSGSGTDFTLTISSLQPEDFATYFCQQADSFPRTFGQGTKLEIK", 0.52),
]

What value of binding signal fold over 6E7 parental has been reported for the following binder? V30 (Fab, V domains shown) VH: EVQLVQSGAEVKKPGESLKISCKGSGSSFTSYWIAWVRQMPGKGLEWMGIIYPGDSDTRYSPSFQGQVTISADKSISTAYLQWSSLKASDTAMYFCARQRTFYYDSSDYFDYWGQGTLVTVSS VL: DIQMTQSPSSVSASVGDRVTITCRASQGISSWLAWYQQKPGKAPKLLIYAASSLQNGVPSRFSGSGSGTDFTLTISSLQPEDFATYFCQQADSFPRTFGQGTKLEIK
0.72

Would you kindly repeat that for V69 (Fab, V domains shown) VH: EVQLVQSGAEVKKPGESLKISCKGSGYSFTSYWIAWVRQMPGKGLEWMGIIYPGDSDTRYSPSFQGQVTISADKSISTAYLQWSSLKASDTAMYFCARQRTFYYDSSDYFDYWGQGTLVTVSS VL: DIQMTQSPSSVSASVGDRVTITCRASQGISSYLAWYQQKPGKAPKLLIYAASSLQNGVPSRFSGSGSGTDFTLTISSLQPEDFATYFCQQADSFPRTFGQGTKLEIK ?
0.4
